Cited source for all entries: ChEMBL document CHEMBL3352288

assayProtocol: Anticancer activity against mouse B16F10 cells assessed as growth inhibition after 72 hrs by MTT colorimetric assay
Assay type: functional, cell-based
protocolConditions: B16-F10, 72 h
propertyMeasured: IC50
Answer format: value, then unit.

Per the records, this molecule ( COc1ccc(N2CCN(C[C@@H]3C(=O)O[C@H]4[C@H]3C[C@@H](O)/C(C)=C/CC[C@@]3(C)O[C@H]43)CC2)cc1 ) has IC50 equal to 14 µM

The recorded IC50 for C/C1=C\CC[C@@]2(C)O[C@@H]2[C@H]2OC(=O)[C@@H](CN3CCN(c4ccccc4)CC3)[C@@H]2C[C@H]1O is 6 µM

Record summary for C/C1=C\CC[C@@]2(C)O[C@@H]2[C@H]2OC(=O)[C@@H](CN3CCCCC3)[C@@H]2C[C@@H]1O : reported IC50 = 6 µM

Reported IC50 ( C/C1=C\CC[C@@]2(C)O[C@@H]2[C@H]2OC(=O)[C@@H](CN3CCCCC3)[C@@H]2C[C@H]1O ) = 4 µM
